Here is a set of compounds with reported Ki for Coagulation factor VII (Homo sapiens), compiled from the literature.

CN(CC(=O)NC(CCCBr)B1OC2CC3CC(C3(C)C)C2(C)O1)C(=O)c1ccccc1Sc1ccccc1C#N (centres unmarked) :: < 50 µM
CC(=O)NCCCCC(NC(=O)C1CCCN1C(=O)CCc1ccccc1)B1OC2CC3CC(C3(C)C)C2(C)O1 (centres unmarked) :: < 50 µM
CN(CC(=O)NC(CCCSC(=N)N)B1OC2CC3CC(C3(C)C)C2(C)O1)C(=O)c1ccccc1Sc1ccccc1 (centres unmarked) :: < 50 µM
CC1(C)C2CC3OB(C(CCCCN)NC(=O)CN(CCc4ccccc4)C(=O)CCCC(=O)O)OC3(C)C1C2 (centres unmarked) :: < 50 µM
CN(CC(=O)NC(CCCCSC(=N)N)B1OC2CC3CC(C3(C)C)C2(C)O1)C(=O)c1ccccc1Sc1ccccc1C#N (centres unmarked) :: < 50 µM
CC1(C)C2CC3OB(C(Cc4cccc(C#N)c4)NC(=O)C4CCCN4C(=O)C(Cc4cccs4)NS(C)(=O)=O)OC3(C)C1C2 (centres unmarked) :: < 0.5 µM
N=C(N)NCCC[C@@H](NS(=O)(=O)Cc1ccccc1)C(=O)N1CCC[C@H]1C(=O)NCc1ccc(C(=N)N)cc1 :: 0.83 µM
CC(C)(C)OC(=O)NC(Cc1cccs1)C(=O)N1CCCC1C(=O)NC(Cc1cccc(C#N)c1)B1OC2CC3CC(C3(C)C)C2(C)O1 (centres unmarked) :: < 0.5 µM

Asked: Report Ki for CN(CC(=O)NC(CCCSC(=N)N)B1OC2CC3CC(C3(C)C)C2(C)O1)C(=O)c1ccccc1Sc1ccccc1C#N (centres unmarked)
Given back: < 0.5 µM

Asked: Provide Ki value for the following compound: CN(CC(=O)NC(CCCCN=[N+]=[N-])B1OC2CC3CC(C3(C)C)C2(C)O1)C(=O)c1ccccc1Sc1ccccc1C#N (centres unmarked)
Given back: < 50 µM

Asked: Item COCCCC(NC(=O)[C@@H]1CCCN1C(=O)[C@@H](Cc1ccccc1)N(C)C)B1OC2CC3CC(C3(C)C)C2(C)O1 (some centres unmarked) : provide Ki
Given back: < 50 µM

Asked: For the compound CC1(C)C2CC3OB(C(Cc4cccc(C#N)c4)NC(=O)[C@@H]4CCCN4C(=O)[C@@H](Cc4ccccn4)NS(C)(=O)=O)OC3(C)C1C2 (some centres unmarked) , report Ki.
Given back: < 0.5 µM

Asked: Please look at this compound and report its Ki: CC(C)(CC(=O)O)CC(=O)N(CCc1ccccc1)CC(=O)NC(CCCCN)B(O)O (centres unmarked)
Given back: < 50 µM

Asked: Identify Ki associated with the compound CC(C)(C)OC(=O)N[C@H](Cc1ccccn1)C(=O)N1CCCC1C(=O)NC(Cc1cccc(C#N)c1)B1OC2CC3CC(C3(C)C)C2(C)O1 (some centres unmarked)
Given back: < 0.5 µM
